Source: ChEMBL document CHEMBL1201862

// values below are GI50; system is HCT-15

Any idea what its GI50 is? The compound is Cc1ccc(NC(=O)COc2ccc(Cl)cc2)cc1Cl
> 100 µM

Any idea what its GI50 is? The compound is COC(=O)Cc1c([C@H]2[C@H](CC(=O)OC)c3ccccc3N2S(=O)(=O)c2ccc(C)cc2)[nH]c2ccccc12
> 100 µM

Any idea what its GI50 is? The compound is CCc1n[nH]c(=O)n1-c1ccc2ccccc2c1
> 100 µM

Any idea what its GI50 is? The compound is CCOC(=O)/C=C/c1c(C)[nH]c(=O)[nH]c1=O
> 250 µM

Any idea what its GI50 is? The compound is CNC1C(O)C(NC)C2OC3(O)C(=O)CC(C)OC3OC2C1O (stereo not given)
> 100 µM

* * *

Assign GI50 to each entry below.
# Test system: HT-29
# test summary: NCI tumour cell line growth inhibition, 48 h
Active and inactive are the calls of the source. No stated cut-off is given here; in the data, active = GI50 up to about 1.1 µM and inactive = higher.

Any idea what its GI50 is? The molecule is COc1ccc2c(c1)nc1n2C(c2c(F)cccc2F)SC1 (centres undefined)
47.3 µM (inactive)

Any idea what its GI50 is? The molecule is CCCCC/C=C1/CC(CO)(COC(=O)CC(C(C)C)C(C)C)OC1=O (centres undefined)
19.5 µM (inactive)

Any idea what its GI50 is? The molecule is COc1ccc(/N=C/N(C)C)c(C)c1
5.4 µM (inactive)

Any idea what its GI50 is? The molecule is CC(C)Sc1nc(C#N)cc2c1CCCC2
> 100 µM (inactive)

* * *

# Test system: MDA-MB-231
# test summary: NCI tumour cell line growth inhibition, 48 h
The source made the active and inactive calls. Rule as the data show it: active = GI50 up to about 1.1 µM and inactive = higher.
Answer with one of the outcomes Y (active), N (inactive)

Outcome? O=Cc1ccc2c(c1)CC1(C2)Cc2ccc3c(c2C1)CCC3 (stereo not given)
N

Outcome? Clc1ccc(COC(Cn2ccnc2)c2ccc(Cl)cc2Cl)cc1 (stereo not given) [ECONAZOLE]
N

Outcome? O=c1[nH]c2nc3ccccc3c(=O)n2/c1=C/c1ccc(Cl)cc1
N

Outcome? CC1=CC(C)C(C)N(CCNC(=O)Nc2ccccc2)c2ccccc21 (stereo not given)
N

Outcome? Cc1ccc2ccccc2c1CSc1nc(N)nc2c1ncn2CC(C)C
N

Outcome? C[C@H]1CN[C@@H]2[C@@H](C)[C@H]3[C@@H](C[C@H]4[C@@H]5CC[C@H]6C[C@@H](N)CC[C@]6(C)[C@H]5CC[C@]34C)O[C@@]2(O)C1
N

Outcome? COc1ccc(/N=N/C(=N/NC(=O)c2ccc(C)cc2)c2ccc(N(CCC#N)CCC#N)cc2OC)cc1
N

Outcome? O[C@@]1(c2cccs2)c2cccc(Cl)c2[C@](O)(c2cccs2)c2cccc(Cl)c21
N

Outcome? O=C(COc1ccc(Cl)c(Cl)c1)N(Cc1ccccc1)Cc1ccc[n+](Cc2ccc(Cl)cc2S(=O)(=O)F)c1
N

Outcome? CCOC(=O)c1c(NC(=O)OC)c(C#N)c2n1CCCCC2
N

Outcome? COC(=O)C1=C(O)C(C(=O)OC)[C@@]2(O)[C@@H](C(=O)OC)C(c3ccc(OC(=O)/C=C/c4ccccc4)cc3)C[C@@H]1[C@@H]2C(=O)OC (stereo not given in full)
N

Outcome? CNC1C(O)C(NC)C2OC3(O)C(=O)CC(C)OC3OC2C1O (stereo not given)
N

Outcome? COc1c2occc2cc2ccc(=O)oc12 [METHOXSALEN]
N

Outcome? CCCCc1ccc(C#CC#Cc2ccc(CCCC)s2)s1
N

Outcome? O=C(c1cc2c(c3ccccc13)NCCN=C2C(F)(F)F)C(F)(F)F
N

Outcome? CCOC(=O)CNC(=O)C(CSC(=O)N(O)c1ccc(Cl)cc1)NC(=O)CCC(N)C(=O)OCC (stereo not given)
N

Outcome? O/N=N\c1nc(-c2ccccn2)nc2ccccc12
N

Outcome? CC(=O)OC[C@@H]1[C@H]2CC[C@]3(C)[C@@H](OC(C)=O)CC[C@H]3[C@@H]2CC[C@H]1C1(C)SCCS1
N

Outcome? O=C(O)C(C1NCCS1)N1C(=O)c2ccccc2C1=O (stereo not given)
N

Outcome? c1ccc(COc2nc3cc(C45CC6CC(CC(C6)C4)C5)ccc3[nH]2)cc1
N

Outcome? Cc1ccc2c(c1)C(=O)/C(=C\c1ccccc1)CCS2(=O)=O
N

Outcome? CC1(C)OC(=O)C(C)(C)C(=O)O1
N

Outcome? O=[N+]([O-])c1cc2oc(COc3ccccc3)nc2cc1Cl
N

Outcome? Clc1ccc(/C=C/c2nc(Cl)c(-c3ccc(Cl)cc3)c(Cl)n2)cc1
N

Outcome? Cn1c2ccccc2c2c3c(c4c5ccccc5n(C)c4c21)C(=O)N(c1ccccc1)C3=O
N

Outcome? CC(=O)Nc1cc2cc(NS(=O)(=O)c3cc(C(F)(F)F)cc(C(F)(F)F)c3)ccc2oc1=O
N

Outcome? COC1=CC(=O)N(C)C(O)C1(C#N)OC1OC(CO)C(O)C(O)C1O (stereo not given)
N

Outcome? CC(C)Sc1nc(C#N)cc2c1CCCC2
N

Outcome? O=C(/C=C/c1ccc(O)c(O)c1)OCCc1cccc2ccccc12
N

Outcome? CC1(C)CNC(c2ccc3c(c2)Cc2cc(C4=NC(C)(C)CN4)ccc2-3)=N1
N

Outcome? CC(C)CNP(=O)(NCC(C)C)Oc1ccc(CC(NC(=O)OCc2ccccc2)C(=O)OCc2ccccc2)cc1 (stereo not given)
N

Outcome? CC(C)(C)OC(=O)n1c(Cl)c(C=O)c2ccccc21
N

Outcome? CN(C)c1ccc(C(=NN)c2ccc(N(C)C)cc2)cc1
Y

Outcome? COC(=O)C1=C(C(=O)OC)C2(C)C=CC1O2 (stereo not given)
N

Outcome? CC(C)NC(=O)OCc1c(COC(=O)NC(C)C)c(-c2ccc[n+](COC(=O)C(C)C)c2)n2c1CCC2
N

* * *

# System: UACC-257
# test summary: NCI tumour cell line growth inhibition, 48 h
The source made the active and inactive calls. No stated cut-off is given here; in the data, active = GI50 up to about 1.1 µM and inactive = higher.
Answer with one of the outcomes active, inactive

Outcome? O=S1(=O)OCCOS(=O)(=O)C1Cc1ccccc1
inactive

Outcome? COc1ccc(-c2cc(=O)c3ccccc3[nH]2)c(OC)c1
inactive

Outcome? COc1cccc2c1cc([N+](=O)[O-])c1c(C(=O)O)cc3c(c12)OCO3
inactive

Outcome? CNS(=O)(=O)NN(C)S(=O)(=O)c1ccc(F)cc1
inactive

Outcome? COC(=O)c1ccccc1/C=C1\Cc2cc3c(cc2C1=O)CCC3
inactive

Outcome? O=[N+]([O-])c1cc2oc(COc3ccccc3)nc2cc1Cl
inactive

Outcome? CC1(C)O[C@@H](C[C@]2(C#N)C[C@H](CCl)OC(C)(C)O2)C[C@@H](C#N)O1
inactive

Outcome? O=C(Nc1ccc(Br)cc1)C(=O)C(C(=O)c1ccc(Cl)c(Cl)c1)C1OC(=O)c2ccccc21 (configuration not stated)
inactive

Outcome? Oc1cc(-c2ccco2)nc2cc3c(cc12)OCO3
inactive

Outcome? Cc1cccc2c1c(=O)c1c(O)cc3c(c1n2C)C=CC(C)(C)O3
inactive

Outcome? CC(C)Oc1cccc(N2C(NCCc3c[nH]c4ccccc34)=Nc3ccncc3S2(=O)=O)c1
inactive

Outcome? O=S(=O)(c1ccc(NC(=S)N/N=C/c2ccccc2O)cc1)N1CCCCC1
active

Outcome? CC(=O)OC1(C)CC(C)C(=O)C(C(O)CC2CC(=O)NC(=O)C2)C1 (configuration not stated)
active

Outcome? O=C1NC2(CCN(CCCC3(c4ccc(F)cc4)OCCO3)CC2)Oc2ccccc21
inactive

Outcome? CCN1CN(c2ccccc2)C2(CCN(CC(CC3OCCO3)c3ccc(F)cc3)CC2)C1=O (configuration not stated)
inactive

Outcome? CCC(C(=O)c1cccs1)C(O)(C(F)(F)F)C(F)(F)F (configuration not stated)
inactive

Outcome? CCCCCCC(O)CC[C@H]1CCC[C@@H](C)N1 (some centres not stated)
inactive

* * *

# Test system: LOX IMVI
# test summary: NCI tumour cell line growth inhibition, 48 h
Activity calls are given as the source filed them. Cut-off read from the data, not from the text of the source: active = GI50 up to about 1.1 µM and inactive = higher.
Answer with one of the outcomes active, inactive

Outcome? O=C1N/C(=N/N=C/c2c[nH]c3ccccc23)N/C1=C\c1cccs1
inactive

Outcome? COC(=O)C(=O)C(C(C)=O)C(=O)NCc1ccc(OC)c(OC)c1 (centres undefined)
inactive

Outcome? Cc1ccc2c(O)c3c(cc2c1)C(=O)c1c2c(cc(O)c1C3=O)C1(C)OC(O2)C(O)C(N(C)C)C1O (centres undefined)
active

Outcome? CCC(c1ccccc1)c1cc(C(C)(C)C)cc(C(C)(C)C)c1O (centres undefined)
inactive

* * *

# Tested on: SK-MEL-2
# test summary: NCI tumour cell line growth inhibition, 48 h
The source made the active and inactive calls. No stated cut-off is given here; in the data, active = GI50 up to about 1.1 µM and inactive = higher.
Assign GI50 to each entry below.

Param readout= GI50; system= SK-MEL-2; entry= COC(=O)C1=C(C)NC(C)=C(C(=O)OCCCN2CCC(c3ccccc3)(c3ccccc3)CC2)[C@H]1c1cccc([N+](=O)[O-])c1 ; returns value.
2.41 µM (inactive)

Param readout= GI50; system= SK-MEL-2; entry= O=C(O)C1(C(=O)O)CCN(S(=O)(=O)c2ccccc2)CC1 ; returns value.
> 100 µM (inactive)

Param readout= GI50; system= SK-MEL-2; entry= Cn1cc(NC(=O)c2cc(NC(=O)CCCCCCCCCCC(=O)Nc3cc(C(=O)Nc4cc(C(=O)NCCC(=N)N)n(C)c4)n(C)c3)cn2C)cc1C(=O)NCCC(=N)N ; returns value.
35.8 µM (inactive)
